System: P388 leukemia ip, CD2F1 mice, survival T/C
Assay: NCI In Vivo Anticancer Drug Screen. Data for tumor model P388 Leukemia (intraperitoneal) in CD2F1 (CDF1) mice
Settings: endpoint: median survival time; dose: 12.5 mg/kg/injection; schedule: Q01DX009 (ip); vehicle: saline; higher = longer survival
Toxic doses and inconclusive results are not listed.
readout: T/C

Enquiry: Can you look up the measured T/C of COc1cccc2c1C(=O)c1c(O)c3c(c(O)c1C2=O)C[C@@](O)(C(=O)CO)C[C@@H]3OC1CC(NC(=S)Nc2ccc3ccccc3c2)C(O)C(C)O1 (some centres not stated) for me?
Return: 99 % of control

Enquiry: Can you look up the measured T/C of CCCCCCCCCCCCCCCCCC[N+]1(CC)CCCC1 for me?
Return: 97 % of control

Enquiry: Can you look up the measured T/C of CC(C)[N+](C)(C)CC(O)COc1ccccc1-c1ccccc1 (configuration not stated) for me?
Return: 100 % of control

Enquiry: Can you look up the measured T/C of COc1ccc(Oc2cc3c(cc2OC)CCN(C)C3)cc1 for me?
Return: 108 % of control

Enquiry: Can you look up the measured T/C of CN(C)CCCC1(O)c2ccccc2CCc2ccccc21 for me?
Return: 103 % of control

Enquiry: Can you look up the measured T/C of CC(C)c1ccccc1Oc1ccccc1N=C1CCN(C)C1 for me?
Return: 100 % of control

Enquiry: Can you look up the measured T/C of CN(C)c1cc(O)c(-n2c3cc(=O)c(N(C)C)cc-3nc3ccccc32)cc1O for me?
Return: 100 % of control

Enquiry: Can you look up the measured T/C of N#Cc1cc(Br)ccc1[N+](=O)[O-] for me?
Return: 101 % of control

Enquiry: Can you look up the measured T/C of CCC1CN2CCc3cc(OC)c(OC)cc3C2CC1=O (configuration not stated) for me?
Return: 104 % of control

Enquiry: Can you look up the measured T/C of O=C1CS/C(=N\C(=O)Nc2cccc(C(F)(F)F)c2)N1 for me?
Return: 103 % of control

Enquiry: Can you look up the measured T/C of CP1(=O)CC(=O)CCCCC(=O)C1 for me?
Return: 114 % of control

Enquiry: Can you look up the measured T/C of CCCCCCC[CH2][Sn]([S][Sn]([CH2]CCCCCCC)([c]1ccccc1)[c]1ccccc1)([c]1ccccc1)[c]1ccccc1 for me?
Return: 98 % of control

Enquiry: Can you look up the measured T/C of O=S(=O)(O)SNCCN1CCOCC1 for me?
Return: 110 % of control

Enquiry: Can you look up the measured T/C of COc1ccc(C(=O)Nc2ccccc2CCC2CCCCN2C)cc1 (configuration not stated) for me?
Return: 95 % of control

Enquiry: Can you look up the measured T/C of COc1ccc(CSC(=S)Nc2cc(Cl)c(Cl)cc2Cl)cc1 for me?
Return: 88 % of control

Enquiry: Can you look up the measured T/C of O=[N+]([O-])c1ccc(C2CC(c3ccccc3)=Nc3ccccc3S2)cc1 (configuration not stated) for me?
Return: 97 % of control

Enquiry: Can you look up the measured T/C of CCOC(=O)C[N+]1(C)C2CCC1CC(OC(=O)C(CO)c1ccccc1)C2 (configuration not stated) for me?
Return: 100 % of control

----------
Tested on: P388 leukemia ip, CD2F1 mice, survival T/C
Experiment: NCI In Vivo Anticancer Drug Screen. Data for tumor model P388 Leukemia (intraperitoneal) in CD2F1 (CDF1) mice
Conditions: endpoint: median survival time; dose: 200.0 mg/kg/injection; schedule: Q01DX005 (ip); vehicle: Klucel (hydroxypropylcellulose) (HPC); higher = longer survival
Inconclusive results and toxic doses are left out.
readout: T/C

Enquiry: Request - read-out T/C | tested on P388 leukemia ip, CD2F1 mice, survival T/C | molecule COc1ccc(S(=O)(=O)c2cc(C)c3ccc4ccccc4c3n2)cc1
Return: 98 % of control

Enquiry: Request - read-out T/C | tested on P388 leukemia ip, CD2F1 mice, survival T/C | molecule CC1OC(O)C(O)C(O)C1O (stereo unspecified)
Return: 104 % of control

Enquiry: Request - read-out T/C | tested on P388 leukemia ip, CD2F1 mice, survival T/C | molecule CC(C)CC([NH-])C(=O)O.CC(C)CC([NH-])C(=O)O.CC(C)CC([NH-])C(=O)O.[Pr+3] (stereo unspecified)
Return: 98 % of control

Enquiry: Request - read-out T/C | tested on P388 leukemia ip, CD2F1 mice, survival T/C | molecule CCCNS(=O)(=O)c1ccccc1C(=O)NC1CCCCC1
Return: 94 % of control

Enquiry: Request - read-out T/C | tested on P388 leukemia ip, CD2F1 mice, survival T/C | molecule O=C(NCc1ccco1)Nc1ccccc1[N+](=O)[O-]
Return: 95 % of control

Enquiry: Request - read-out T/C | tested on P388 leukemia ip, CD2F1 mice, survival T/C | molecule COc1ccc(C(C)=O)cc1CN1CCN(Cc2cc(C(C)=O)ccc2OC)CC1
Return: 99 % of control

----------
System: P388 leukemia ip, CD2F1 mice, survival T/C
Test: NCI In Vivo Anticancer Drug Screen. Data for tumor model P388 Leukemia (intraperitoneal) in CD2F1 (CDF1) mice
Conditions: endpoint: median survival time; dose: 100.0 mg/kg/injection; schedule: Q01DX009 (ip); vehicle: suspension in saline; higher = longer survival
Toxic doses and inconclusive results are not listed.
Give measured T/C for each item. Keep answers brief.

Enquiry: Can you look up the measured T/C of NC(Cc1ccccc1)P(=O)(O)O (configuration not stated) for me?
Return: 99 % of control

Enquiry: Can you look up the measured T/C of COC(=O)c1ccc(/C=C(\c2ccc([N+](=O)[O-])o2)S(=O)(=O)c2ccc(NC(C)=O)cc2)o1 for me?
Return: 88 % of control

Enquiry: Can you look up the measured T/C of Cc1cc(N2C(=O)CSC2=S)ccc1Cl for me?
Return: 99 % of control

Enquiry: Can you look up the measured T/C of O=[N+]([O-])C(CO)C(CO)[N+](=O)[O-] (configuration not stated) for me?
Return: 103 % of control

Enquiry: Can you look up the measured T/C of O=[N+]([O-])c1ccc(NN=C(CO)CO)c([N+](=O)[O-])c1 for me?
Return: 98 % of control

Enquiry: Can you look up the measured T/C of Cc1ccc(N2C(=O)CCSC2=S)cc1C for me?
Return: 89 % of control

Enquiry: Can you look up the measured T/C of Cc1cc(N2C(=O)CCSC2=S)ccc1Br for me?
Return: 104 % of control

----------
System: P388 leukemia ip, CD2F1 mice, survival T/C
Assay: NCI In Vivo Anticancer Drug Screen. Data for tumor model P388 Leukemia (intraperitoneal) in CD2F1 (CDF1) mice
Conditions: endpoint: median survival time; dose: 3.75 mg/kg/injection; schedule: Q01DX005 (ip); vehicle: saline with Tween-80; higher = longer survival
Toxic doses and inconclusive results are not listed.
readout: T/C

Enquiry: Request - read-out T/C | tested on P388 leukemia ip, CD2F1 mice, survival T/C | molecule O=S(=O)(O)SCCNCCCCC1CCCCC1
Return: 99 % of control

Enquiry: Request - read-out T/C | tested on P388 leukemia ip, CD2F1 mice, survival T/C | molecule COc1ccc2sc3cc(Cl)ccc3c(=O)c2c1
Return: 90 % of control

Enquiry: Request - read-out T/C | tested on P388 leukemia ip, CD2F1 mice, survival T/C | molecule COC(=O)c1cn(C2OC(CO)C(O)C2O)c2ncnc(N)c12 (stereo not given)
Return: 103 % of control

Enquiry: Request - read-out T/C | tested on P388 leukemia ip, CD2F1 mice, survival T/C | molecule CCN(CC)CCSc1c2ccccc2nc2ccccc12
Return: 110 % of control

Enquiry: Request - read-out T/C | tested on P388 leukemia ip, CD2F1 mice, survival T/C | molecule CCCCCCCCCCCCCCCCc1c(C(=O)OC)nc(N)[nH]c1=O
Return: 99 % of control

----------
Give measured T/C for each item. Keep answers brief.
Tested on: P388 leukemia ip, CD2F1 mice, survival T/C
Assay: NCI In Vivo Anticancer Drug Screen. Data for tumor model P388 Leukemia (intraperitoneal) in CD2F1 (CDF1) mice
Settings: endpoint: median survival time; dose: 50.0 mg/kg/injection; schedule: Q04DX003 (ip); vehicle: saline with Tween-80; higher = longer survival
Inconclusive results and toxic doses are left out.

Enquiry: Can you look up the measured T/C of CCOC(=O)C(=CNC1CC(OC2C[C@](O)(C(C)=O)Cc3c(O)c4c(c(O)c32)C(=O)c2c(OC)cccc2C4=O)OC(C)C1O)C(=O)OCC (some centres undefined) for me?
Return: 108 % of control

Enquiry: Can you look up the measured T/C of CCN(CC)CCCC(C)Nc1c2ccc(Cl)cc2nc2cc(N=Nc3cccc4ccccc34)c(OC)cc12 (centres undefined) for me?
Return: 92 % of control

Enquiry: Can you look up the measured T/C of Cc1cc(N)c(C)c(C)c1O for me?
Return: 110 % of control

Enquiry: Can you look up the measured T/C of COC(=O)c1ccc(C)cc1C(=O)OC for me?
Return: 100 % of control

Enquiry: Can you look up the measured T/C of O=C(NCCc1ccccc1)c1ccccc1 for me?
Return: 100 % of control

Enquiry: Can you look up the measured T/C of CCN(CC)CC(COC)Oc1cc(C)ccc1C(C)C (centres undefined) for me?
Return: 104 % of control

Enquiry: Can you look up the measured T/C of C=C1CC2CCC1C2 (centres undefined) for me?
Return: 104 % of control

Enquiry: Can you look up the measured T/C of Nc1nc(Cl)c2[nH]cnc2n1 for me?
Return: 95 % of control

Enquiry: Can you look up the measured T/C of COC(/C=N/OC(=O)c1ccccc1)c1ccccc1 (centres undefined) for me?
Return: 92 % of control

Attribution: PubChem BioAssay AID330
